B1: REST corepressor 3, residues 87 to 134; numbered along this chain, Q9P2K3 (parent)
chain: DEWTVEDKVLFEQAFSFHGKSFHRIQQMLPDKTIASLVKYYYSWKKTR

variants of: B1; assay: abundance fitness (aPCA) (normalised: wild type 0, dead -1); higher = more abundant; growth selection in yeast, the domain comes from the species named; settings: Homo sapiens
Classification field: Condition met = abundance fitness at or over -0.3; Condition not met = abundance fitness under -0.3.

See these solved cases before continuing.
INSERT INTO assay_data (variant_notation, answer_label) VALUES
  ('L37K', 'Condition not met'),
  ('Y42I', 'Condition met'),
  ('V38S', 'Condition met'),
  ('I25G', 'Condition not met'),
  ('F17E', 'Condition met');

Data request: Say whether `D1E` shows abundance fitness of -0.3 or more.
Data returned: Condition met

Data request: Say whether `Y42A` shows abundance fitness of -0.3 or more.
Data returned: Condition met

Data request: Say whether `L29I` shows abundance fitness of -0.3 or more.
Data returned: Condition not met

Data request: Say whether `S16R` shows abundance fitness of -0.3 or more.
Data returned: Condition met

Data request: Say whether `S43T` shows abundance fitness of -0.3 or more.
Data returned: Condition not met

Data request: Say whether `D31I` shows abundance fitness of -0.3 or more.
Data returned: Condition not met

Data request: Say whether `K32D` shows abundance fitness of -0.3 or more.
Data returned: Condition not met

Data request: Say whether `A14K` shows abundance fitness of -0.3 or more.
Data returned: Condition not met

Data request: Say whether `Q26Y` shows abundance fitness of -0.3 or more.
Data returned: Condition not met

Data request: Say whether `F17Y` shows abundance fitness of -0.3 or more.
Data returned: Condition not met

Data request: Say whether `I34V` shows abundance fitness of -0.3 or more.
Data returned: Condition not met

Data request: Say whether `E12T` shows abundance fitness of -0.3 or more.
Data returned: Condition met
